From: PubChem BioAssay (NCI)

- System: M19-MEL melanoma
- method-summary: NCI tumour cell line growth inhibition, 48 h
readout-label: TGI (µM)
State just the number; it will be interpreted in µM.

Reported TGI ( "CC1=C(C(=O)Nc2ccccc2)C(c2cccc3ccccc23)C(C(=O)Nc2ccccc2)=C(C)N1" ) = 34.5

TGI in this record for C=C(NC(=O)C(=C)NC(=O)c1csc(C2=NC3c4csc(n4)C4NC(=O)c5csc(n5)C(C(C)(O)C(C)O)NC(=O)C5CSC(=N5)/C(=C/C)NC(=O)C(C(C)O)NC(=O)c5csc(n5)C3(CC2)NC(=O)C(C)NC(=O)C(=C)NC(=O)C(C)NC(=O)C(C(C)CC)NC2C=Cc3c(C(C)O)cc(nc3C2O)C(=O)OC4C)n1)C(N)=O (configuration not stated) : 3.05

In plain terms, "O=C(CSc1nc(-c2ccccc2)c(-c2ccccc2)[nH]1)N/N=C/c1ccc(O)cc1" has a documented TGI of 51

TGI in this record for CCOC(=O)C(Cc1c[nH]c2cc([N+](=O)[O-])ccc12)NS(=O)(=O)c1ccc2ccccc2c1 (configuration not stated) : 30.9

====

- Tested on: TK-10 renal
- method-summary: NCI tumour cell line growth inhibition, 48 h
readout-label: TGI

Consider the following illustrative entries.
compound=CC1(C)CNc2cc(NC(=O)c3cccnc3NCc3ccncc3)ccc21 assayed_system="TK-10 renal" readout_label=TGI result="> 100 µM"
compound="CCOC(=O)Oc1cc2c(c(OC)c1OC)-c1ccc(OC)c(=O)cc1C(NC(C)=O)CC2 (stereo unspecified)" assayed_system="TK-10 renal" readout_label=TGI result="> 100 µM"
compound=CC(C)=CCC/C(C)=C/COc1c2ccoc2cc2oc(=O)ccc12 assayed_system="TK-10 renal" readout_label=TGI result="> 100 µM"
compound="CC1(C)CCC(C)(C)C1C(=O)NC(O)C(=O)O (stereo unspecified)" assayed_system="TK-10 renal" readout_label=TGI result="> 100 µM"
compound="COC(=O)c1ccc(C)cc1CC1Cc2ccc(C)cc2C1=O (stereo unspecified)" assayed_system="TK-10 renal" readout_label=TGI result="46.8 µM"
compound=COc1c(-c2nc3nc(N4CCN(C)CC4)ccc3[nH]2)cc(OC)c2c1nc(COC(C)=O)n2C assayed_system="TK-10 renal" readout_label=TGI result="0.0263 µM"
compound=O=[N+]([O-])C=C(c1ccc(Cl)cc1)c1ccc(Cl)cc1 assayed_system="TK-10 renal" readout_label=TGI result="33.5 µM"
compound="c1ccc2c3c([nH]c2c1)[C@H]1C2CCCCN2CN1CC3 (stereo partly specified)" assayed_system="TK-10 renal" readout_label=TGI result="> 100 µM"

The recorded TGI for entry CC1C(C)N(C(=O)CCl)c2ccccc2N1C(=O)CCl (stereo unspecified) equals 2.04 µM

Data point: "NC1=Nc2cc(Cl)ccc2Sc2nc3ccccc3n21" ; TGI = > 100 µM

Consider O=c1ccn(C2OC(CO)C(O)C2F)c(=O)n1Cc1ccccc1 (stereo unspecified) . Its measured TGI is > 100 µM

====

- Tested on: 786-0 renal
- method-summary: NCI tumour cell line growth inhibition, 48 h
Would you please tag the item satisfied when its TGI is 30 µM or above, and not satisfied when it is below?

molecule=O=[N+]([O-])C(/C=N/Nc1ccccc1)/C=N/Nc1ccccc1 classification=satisfied

## Task Say whether "Cc1cc(=O)n2nc(CCl)sc2n1" shows TGI of 30 µM or more.
## Result satisfied

====

- System: HOP-62 NSCLC
- method-summary: NCI tumour cell line growth inhibition, 48 h
readout-label: TGI

Worked cases, TGI given:
molecule=COc1ccc([C@@H]2CC(=O)N2)cc1 result="> 100 µM"
molecule="CC1=C(SCCC(=O)OC(C[Se]C2=C(C)C(=O)c3ccccc3C2=O)C(=O)NCCCCCC(=O)OCc2ccccc2)C(=O)c2ccccc2C1=O (configuration not stated)" result="14.4 µM"
molecule=Nc1[nH]nc2nc3ccccc3nc12 result="> 100 µM"

Quick note, TGI for "CCN(CC)CCCNc1cc(OC)cc2nc3cc(Cl)ccc3nc12" landed at 8.44 µM

Value of TGI reported for the molecule "O=C([CH-]C(=O)c1ccccc1)c1ccccc1.[CH-]1CCCCC1.[CH-]1CCCCC1.[CH-]1CCCCC1.[Sn+4]" is 20 µM

So, "CC1=C(C(=O)Nc2ccccc2)C(c2cccc3ccccc23)C(C(=O)Nc2ccccc2)=C(C)N1" ? Its TGI was 35.4 µM

Entry "O=C(Nc1cccc([N+](=O)[O-])c1)c1n[nH]n(-c2cccc([N+](=O)[O-])c2)c1=O" ; TGI = > 100 µM

Please fill in: TGI reported for "O=C(N/N=C\c1ccc(N(CCCl)CCCl)cc1[N+](=O)[O-])c1cccnc1" = > 100 µM

Reported TGI for "COC12C=C/C(=C(/C(=O)OCc3ccccn3)C(=O)CCCCCCCCC3(OC)C=C/C(=C(/C(=O)OCc4ccccn4)C(=O)CCCCCCCC1)O3)O2" was 1.06 µM

Value of TGI reported for the molecule "NCCCC[C@@H]1NC(=O)[C@H](CC(=O)O)NC(=O)CNC(=O)[C@H](CCCN=C(N)N)NC(=O)[C@@H](N)CSSC[C@@H](C(=O)O)NC(=O)[C@H](CC(=O)O)NC(=O)[C@@H]2CCCN2C(=O)CNC1=O" is > 100 µM

TGI reported for this molecule "CCOC(=O)c1nc2ccc(C(F)(F)F)cc2nc1Nc1ccc(Cl)c(Cl)c1" : > 100 µM

TGI reading for "COc1c(-c2nc3nc(N4CCN(C)CC4)ccc3[nH]2)cc(OC)c2c1nc(COC(C)=O)n2C" : > 100 µM

The recorded TGI for "O=C(CSc1nc(-c2ccccc2)c(-c2ccccc2)[nH]1)N/N=C/c1ccc(O)cc1" is 46.5 µM

Entry "COC(=O)c1c(C#N)c(N)nc2c1CCC2" , TGI reported as > 100 µM

// sample "COc1cc2c3c(n(C)c(=O)c2cc1OC)-c1cc2c(cc1/C3=C\CCCI)OCO2" , its TGI was > 100 µM

O=c1ccn(C2OC(CO)C(O)C2F)c(=O)n1Cc1ccccc1 (configuration not stated) has a reported TGI of > 100 µM

// field: TGI; key: "CC(=O)c1c2c(cc3c1CC1(C3)Cc3cc4c(c(C(C)=O)c3C1)CCC4)CCC2" ; value = > 100 µM

====

- System: TK-10 renal
- method-summary: NCI tumour cell line growth inhibition, 48 h
readout-label: TGI

compound=COc1ccc(CN2c3ccccc3Sc3ccccc32)c(C(F)(F)F)c1 result="> 100 µM"
compound=COc1ccc(C/C(=C(\C)c2ccc(OCCN3CCCC3)cc2)c2ccc(OCCN3CCCC3)cc2)cc1 result="3.02 µM"
compound="O=C1N2Cc3c4ccc5c3CN3C(=O)N6Cc7c(ccc(c7CN1C6(c1ccccc1)C23c1ccccc1)OCCOCCNCCOCCO4)OCCOCCNCCOCCO5 (centres undefined)" result="56 µM"
compound="COC1=CC2(CC(OC)=C1OC)OC21COc2ccccc2C1=O (centres undefined)" result="> 100 µM"
compound=C[N+](C)(C)CC(=O)N/N=C(/C(=O)Nc1ccc(Br)cc1)C1C(=O)NC(=O)NC1=O result="> 100 µM"

For reference, reported TGI for C=C1C(O)C[C@H](OC(C)=O)[C@]2(C)C1C(OC(C)=O)[C@]1(C(C)(C)O)CC(O)C(C)=C1[C@@H](OC(=O)c1ccccc1)C2OC(C)=O (some centres undefined) stands at > 10 µM

Please fill in: TGI reported for C=C(C)COC1CCCCO1 (centres undefined) = > 100 µM

// recorded TGI for "CCN(CC)CCCNc1cc(OC)cc2nc3cc(Cl)ccc3nc12" : 5.8 µM

TGI in this record for "O=c1oc2ccccc2cc1-c1cn2c(n1)sc1ccccc12" : > 100 µM

====

Quick reference for TGI among some compounds
- Tested on: SR leukemia
- method-summary: NCI tumour cell line growth inhibition, 48 h
Dear colleague, please return just the value in µM, with no unit written.

Use these answered entries as a reference point.
compound=O=C(Nc1cccc(O)c1)c1ccc(NC2=C(Cl)C(=O)N(Cc3ccc(Cl)cc3Cl)C2=O)cc1 number=0.411
compound="COc1ccc2c3c([nH]c2c1[N+](=O)[O-])C(C)N(Cc1ccccc1)CC3 (stereo unspecified)" number=45.2
compound=CCN(CC)CCCNc1cc(OC)cc2nc3cc(Cl)ccc3nc12 number=18
compound=CCOCCCn1c2c(c3c(O)cccc31)C(=O)c1ccccc1-2 number=27.7
compound="CCOC(=O)C(=O)CC1=Nc2ccccc2SC(c2cccc(C)c2)C1 (stereo unspecified)" number=60.5

# TGI (compound: C=C1CC(Cn2ccc(=O)[nH]c2=O)(c2ccc(Cl)cc2)OC1=O (stereo unspecified) ) is 11.7

The reported TGI of the compound c1ccc(C2OC3(CCC[C@H]4C[C@H]43)O[C@H]2c2ccccc2)cc1 (stereo partly specified) was 54.2
